# System: adult rat trigeminal ganglia neurons
# ASSAY_COMMENT: CGRP release from cultured rat trigeminal ganglia neurons (ELISA)
# Format: cell-based
# ASSAY_CONDITIONS: Neuron, 0.5 h; CAP+ARTN (30 min), 10 ng/ml rat artemin; read-out: EC50 of CAP for CGRP release
REPORTED_PROPERTY: EC50 (nM)
Please reply with the bare figure in nM and do not write the unit itself.

Record request: EC50 value, item COc1cc(CNC(=O)CCCC/C=C/C(C)C)ccc1O [CAP, capsaicin, reference compound] 17.9

---

# Tested on: adult rat trigeminal ganglia neurons
# ASSAY_COMMENT: CGRP release from cultured rat trigeminal ganglia neurons (ELISA)
# Type: cell-based
# ASSAY_CONDITIONS: Rattus norvegicus, Neuron, 24 h, read-out: EC50 of AITC for CGRP release
REPORTED_PROPERTY: EC50 (µM)
Please reply with the bare figure in µM and do not write the unit itself.

Record request: EC50 value, item C=CCN=C=S [AITC, allyl isothiocyanate, reference compound] 6.94

This collection of values is drawn from patent US20250154236A1.
